Data origin, for the record: paper PMC8406298

tested on: normal human dermal fibroblasts (NHDF) cells; assay: Fibroblast cytotoxicity (CellTiter-Glo); format: cell-based; details: 10 µM
Please respond with reported Cytotoxicity: Relative Cell Viability (% of Negative Control) for every item in the list.

Incoming: Quick check: Cytotoxicity: Relative Cell Viability (% of Negative Control) of O=C1CC(c2ccccc2)[Se]C(c2ccccc2)C1 (stereo not drawn) ?
Outgoing: 45.9 % of Negative Control

Incoming: Quick check: Cytotoxicity: Relative Cell Viability (% of Negative Control) of "CCSc1oc(-c2ccco2)nc1[P+](c1ccccc1)(c1ccccc1)c1ccccc1" ?
Outgoing: 41.9 % of Negative Control

Incoming: Quick check: Cytotoxicity: Relative Cell Viability (% of Negative Control) of "O=S(=O)(NCC#CCOc1cccc(C(F)(F)F)c1)c1cccs1" ?
Outgoing: 63.8 % of Negative Control

Incoming: Quick check: Cytotoxicity: Relative Cell Viability (% of Negative Control) of "COc1ccc(Cc2nc3ccccc3[nH]2)cc1" ?
Outgoing: 98.0 % of Negative Control

Incoming: Quick check: Cytotoxicity: Relative Cell Viability (% of Negative Control) of "O=C(NCc1ccnc(-c2cccs2)c1)c1nc2ccccc2s1" ?
Outgoing: 93.3 % of Negative Control

Incoming: Quick check: Cytotoxicity: Relative Cell Viability (% of Negative Control) of "Cc1ccc(C)c(S(=O)(=O)n2cnc3ccccc32)c1" ?
Outgoing: 84.1 % of Negative Control

Incoming: Quick check: Cytotoxicity: Relative Cell Viability (% of Negative Control) of "COC(=O)Nc1nc(CC(=O)N2CCN(c3cccc(Cl)c3Cl)CC2)cs1" ?
Outgoing: 62.6 % of Negative Control

Incoming: Quick check: Cytotoxicity: Relative Cell Viability (% of Negative Control) of "Cc1nc(C)c(C(=O)NCCn2ncc3c(N4CCN(Cc5ccccc5)CC4)ncnc32)s1" ?
Outgoing: 112.9 % of Negative Control

Incoming: Quick check: Cytotoxicity: Relative Cell Viability (% of Negative Control) of "CN(C)CCN(C(=O)c1c[nH]c2ccccc12)c1nc2ccc(OC(F)(F)F)cc2s1.Cl" ?
Outgoing: 66.6 % of Negative Control

Incoming: Quick check: Cytotoxicity: Relative Cell Viability (% of Negative Control) of "CCc1ccc2nc(N)sc2c1" ?
Outgoing: 62.5 % of Negative Control

Incoming: Quick check: Cytotoxicity: Relative Cell Viability (% of Negative Control) of Cc1ccc(OCCOCC(O)CN2CCN(c3ccc(F)cc3)CC2)cc1C (stereo not drawn) ?
Outgoing: 94.5 % of Negative Control

Incoming: Quick check: Cytotoxicity: Relative Cell Viability (% of Negative Control) of "NC(=O)c1ccsc1NC(=O)/C=C/c1ccccc1" ?
Outgoing: 50.8 % of Negative Control

Incoming: Quick check: Cytotoxicity: Relative Cell Viability (% of Negative Control) of "COC(=O)c1ccc(Cn2c(S(C)(=O)=O)nc3ccccc32)cc1" ?
Outgoing: 88.5 % of Negative Control

Incoming: Quick check: Cytotoxicity: Relative Cell Viability (% of Negative Control) of "Oc1ccc2cc(Br)ccc2c1" ?
Outgoing: 31.7 % of Negative Control

Incoming: Quick check: Cytotoxicity: Relative Cell Viability (% of Negative Control) of "Cl.Fc1ccc(Nc2nc(-c3ccoc3)cs2)cc1F" ?
Outgoing: 70.6 % of Negative Control

Incoming: Quick check: Cytotoxicity: Relative Cell Viability (% of Negative Control) of "COC(=O)c1c(N)sc(C)c1-c1ccc(F)cc1" ?
Outgoing: 75.9 % of Negative Control

Incoming: Quick check: Cytotoxicity: Relative Cell Viability (% of Negative Control) of "Oc1ccccc1-c1cc2ccccc2[nH]1" ?
Outgoing: 96.3 % of Negative Control

Incoming: Quick check: Cytotoxicity: Relative Cell Viability (% of Negative Control) of "O=C(Cc1ccc(F)cc1)N1CCN(c2nc(-c3ccsc3)cs2)CC1" ?
Outgoing: 99.2 % of Negative Control

Incoming: Quick check: Cytotoxicity: Relative Cell Viability (% of Negative Control) of "Cc1ccc(Nc2ccc(N3CCN(C(=O)Cc4ccc(F)cc4)CC3)nn2)cc1" ?
Outgoing: 102.4 % of Negative Control

Incoming: Quick check: Cytotoxicity: Relative Cell Viability (% of Negative Control) of "CC(C)c1nc(-c2ccc(N3CCN(C(=O)Cc4cn(C)c5ccccc45)CC3)nc2)no1" ?
Outgoing: 91.8 % of Negative Control

Incoming: Quick check: Cytotoxicity: Relative Cell Viability (% of Negative Control) of "CC1CCN(C(=O)COc2ccc(-c3ccccc3)cc2)CC1" ?
Outgoing: 90.0 % of Negative Control

Incoming: Quick check: Cytotoxicity: Relative Cell Viability (% of Negative Control) of C=C(C)Cn1c(C2CC(=O)N(c3ccccc3F)C2)nc2ccccc21 (stereo not drawn) ?
Outgoing: 95.9 % of Negative Control

Incoming: Quick check: Cytotoxicity: Relative Cell Viability (% of Negative Control) of "O=C(Nc1nc2c(s1)CCc1ccccc1-2)c1ccco1" ?
Outgoing: 92.9 % of Negative Control

Incoming: Quick check: Cytotoxicity: Relative Cell Viability (% of Negative Control) of "COc1ccc(CCNC(=O)c2c(O)nc3ccccn3c2=O)cc1OC" ?
Outgoing: 103.5 % of Negative Control

Incoming: Quick check: Cytotoxicity: Relative Cell Viability (% of Negative Control) of "O=C1C(NS(=O)(=O)c2ccccc2)=C/C(=N\S(=O)(=O)c2ccc(F)cc2)c2ccccc21" ?
Outgoing: 89.3 % of Negative Control

Incoming: Quick check: Cytotoxicity: Relative Cell Viability (% of Negative Control) of "COc1cccc2cc(-c3csc(NN=C4CCN(C)CC4)n3)c(=O)oc12" ?
Outgoing: 68.7 % of Negative Control

Incoming: Quick check: Cytotoxicity: Relative Cell Viability (% of Negative Control) of O=C(NC1CCN(c2nccs2)C1)c1nc2ccccc2s1 (stereo not drawn) ?
Outgoing: 94.5 % of Negative Control

Incoming: Quick check: Cytotoxicity: Relative Cell Viability (% of Negative Control) of CN(C)S(=O)(=O)N1CCN(CC(O)COc2ccc3cc(Br)ccc3c2)CC1 (stereo not drawn) ?
Outgoing: 88.7 % of Negative Control

Incoming: Quick check: Cytotoxicity: Relative Cell Viability (% of Negative Control) of "O=C(NCCOc1ccc(F)cc1)c1ccc(C(F)(F)F)cc1" ?
Outgoing: 100.1 % of Negative Control

Incoming: Quick check: Cytotoxicity: Relative Cell Viability (% of Negative Control) of "O=C(/C=C/c1cccc(F)c1)c1cccs1" ?
Outgoing: 45.7 % of Negative Control

Incoming: Quick check: Cytotoxicity: Relative Cell Viability (% of Negative Control) of O=C(Nc1nc2ccccc2s1)C1CCCCN1S(=O)(=O)c1ccc(Cl)s1 (stereo not drawn) ?
Outgoing: 86.9 % of Negative Control

Incoming: Quick check: Cytotoxicity: Relative Cell Viability (% of Negative Control) of "Nc1nc(-c2ccc(Oc3ccccc3)cc2)cs1" ?
Outgoing: 97.5 % of Negative Control

Incoming: Quick check: Cytotoxicity: Relative Cell Viability (% of Negative Control) of "Cc1cc(C(=O)NCCc2nc3c(c(C(F)(F)F)n2)COCC3)c(C)o1" ?
Outgoing: 103.1 % of Negative Control

Incoming: Quick check: Cytotoxicity: Relative Cell Viability (% of Negative Control) of O=C(c1ccc2nsnc2c1)N1CCSC(c2ccccc2Cl)CC1 (stereo not drawn) ?
Outgoing: 97.8 % of Negative Control

Incoming: Quick check: Cytotoxicity: Relative Cell Viability (% of Negative Control) of "Cc1cccc2sc(OC3CN(C(=O)Cc4ccc(F)cc4)C3)nc12" ?
Outgoing: 99.2 % of Negative Control

Incoming: Quick check: Cytotoxicity: Relative Cell Viability (% of Negative Control) of "Clc1ccc2nc(Nc3ccncc3)nc(-c3ccccc3)c2c1" ?
Outgoing: 90.5 % of Negative Control

###

tested on: normal human dermal fibroblasts (NHDF) cells; test: Fibroblast cytotoxicity (CellTiter-Glo); assay type: cell-based; conditions: 10 µM
property.measured: Cytotoxicity: Relative Cell Viability (% of Negative Control)

Incoming: Quick check: Cytotoxicity: Relative Cell Viability (% of Negative Control) of CC(C)(C)NCC(O)COc1ccc(C23CC4CC(CC(C4)C2)C3)cc1 (centres unmarked) [compound 2769740] ?
Outgoing: 2.7 % of Negative Control

Incoming: Quick check: Cytotoxicity: Relative Cell Viability (% of Negative Control) of Cc1ccccc1N=c1scc(-c2ccc(F)cc2)n1CCO [compound 16955786] ?
Outgoing: 85.9 % of Negative Control

Incoming: Quick check: Cytotoxicity: Relative Cell Viability (% of Negative Control) of Cn1c(=O)c(Nc2ccc(O)cc2)c2c3c(cccc31)C(=O)c1ccccc1-2 [compound 1263311] ?
Outgoing: 86.6 % of Negative Control

Incoming: Quick check: Cytotoxicity: Relative Cell Viability (% of Negative Control) of COc1ccc(NC(=O)CN2CCN(c3c(C)cccc3C)CC2)cc1 [compound 2200363] ?
Outgoing: 71.8 % of Negative Control

Incoming: Quick check: Cytotoxicity: Relative Cell Viability (% of Negative Control) of S=C1SCN(Cc2ccccn2)CN1Cc1ccco1 [compound 3242906] ?
Outgoing: 103.5 % of Negative Control
